# run-description: solvent given as SMILES
# experimental-conditions: in CC#N

# molecule, unit-abbrev, emission maximum
rows = [
    ("CCCC(=O)c1c(OCOC)c(OCOC)c(C(=O)CCC)c2c1OCO2", "nm", 503),
    ("CC1=[N+]2C(=C(c3ccc(N4CCOCC4)cc3)c3ccc(C)n3[B-]2(F)F)C=C1", "nm", 534),
    ("CN1C(=O)/C(=C/c2ccncc2)N=C1c1ccccc1", "nm", 475),
    ("CCOC(=O)c1ccccc1-c1c2ccc(=[N+](CC)CC)cc-2oc2cc(N(CC)CC)ccc12", "nm", 581),
    ("C[C@]12SC(=O)C=C1c1nc(-c3ccc(Cl)cc3)[nH]c1C1=CC(=O)S[C@@]12C", "nm", 509),
    ("CN(C)c1ccc(C#Cc2ccc(-c3nc(C#N)c(C#N)n3C)cc2)cc1", "nm", 514),
    ("COC(=O)C1=C(C(=O)OC)C2=C[C@H]3c4ccccc4[C@]2(S1)c1ccccc13", "nm", 489),
    ("CN1c2ccccc2C(O)(c2ccccc2)c2cc([N+](=O)[O-])ccc21 (configuration not stated)", "nm", 557),
    ("CCNc1cc2oc(=O)cc(C(F)(F)F)c2cc1C", "nm", 481),
    ("F[B-]1(F)OC(c2ccc3c(c2)Cc2ccccc2-3)=CC(c2ccccc2)=[O+]1", "nm", 491),
    ("COc1cnc(-c2cc[n+](C3=C(F)C(F)(F)C(F)(F)[C-]3F)cc2)s1", "nm", 474),
    ("N#Cc1ccc(C=C2Oc3cccc(O)c3C2=O)cc1", "nm", 510),
]

###

# run-description: solvent given as SMILES
# experimental-conditions: in ClCCl
readout: emission maximum (nm)

# molecule, meas-value
measured = [
    ("C[Si]1(C)c2ccc(C#Cc3ccccc3)cc2C=Cc2cc(C#Cc3ccccc3)ccc21", 375),
    ("C(=C\\c1cnccn1)/c1ccc(N(c2ccccc2)c2ccccc2)cc1", 543),
    ("COc1cccc(C2=C3C=C(/C=C/C(=O)OC(C)(C)C)C=[N+]3[B-](F)(F)n3cccc32)c1", 581),
    ("CCOC(=O)c1c(-c2c(Cl)c3cc(C)ccc3oc2=O)nn(-c2ccccc2)c1C(=O)OCC", 417),
    ("COC(=O)/C=C/C=C/C1=CC2=C(c3c(C)cc(C)cc3C)c3cc(/C=C/C=C/C(=O)OC)cn3[B-](F)(F)[N+]2=C1", 662),
    ("CCCCC1=Cc2c3ccc4cccc5ccc(c6cc(-c7ccccc7)n(c26)P1(=O)c1ccccc1)c3c45 (stereo not drawn)", 459),
    ("CCCCn1c(-c2ccc(-c3nnc(-c4ccc5ccccc5c4)o3)cc2)nc2c3ccccc3c3ccccc3c21", 448),
    ("CCN(CC)c1ccc2cc(/C=C(\\C#N)c3nc4ccccc4s3)c(=O)oc2c1", 580),
    ("CCCCCCN1C(=O)c2cccc3c(-c4ccc(-c5cc(-c6ccc(Cl)cc6)n(-c6ccccc6)n5)s4)ccc(c23)C1=O", 517),
    ("O=C1c2cccc3c(NCc4ccccn4)c4ccccc4c(c23)C(=O)N1Cc1ccccn1", 611),
    ("CCCCn1c2ccc(C#N)cc2c2cc(C#N)cc(-c3ccc(N(c4ccccc4)c4ccccc4)cc3)c21", 447),
    ("c1ccc(C2=C(c3ccccc3)c3cccc4c3c(cc3nc5c(-c6ccccc6)ccc(-c6ccccc6)c5nc34)O2)cc1", 551),
    ("Cc1cc(C)c(B(c2ccc(-c3nc4c5ccccc5c5ccccc5c4[nH]3)cc2)c2c(C)cc(C)cc2C)c(C)c1", 454),
    ("C(=C\\c1ccc(N(c2ccccc2)c2ccccc2)cc1)/c1ccc(-c2cc(-c3ccccn3)nc(-c3ccccn3)c2)cc1", 519),
    ("O=C1c2ccccc2C2=Nc3cccc4cccc(c34)N12", 596),
    ("C[n+]1ccc(/C=C/c2ccc([O-])cc2)cc1", 615),
    ("CCNc1cc2oc(=O)c3c(=O)oc4ccccc4c3c2cc1C", 509),
    ("CC(C)(C)c1ccc(-c2ccc(-c3ccc(C(C)(C)C)cc3)c3nsnc23)cc1", 512),
]

###

# emission maximum listing for each entry below
# run-description: solvent given as SMILES
# experimental-conditions: in ClCCl
readout: emission maximum (nm)

# chemical-smiles, unit-abbrev, meas-value
records = [
    ("COc1ccc(/C=C/c2nc(N3CCOCC3)c3c([n+]2[O-])CCCC3)cc1", "nm", 533),
    ("CC1(C)[C@@H]2CC[C@]1(C)c1nc3cc(-c4cccs4)ccc3nc12", "nm", 413),
    ("Clc1ccc(N2c3sc4ccccc4c3Sc3sc4ccccc4c32)cc1", "nm", 563),
    ("CCn1c2ccsc2c2c3nsnc3c3c4sccc4n(CC)c3c21", "nm", 565),
    ("CC(C)(C)NC(=O)c1cccc2ccc3c4ccccc4c4ccccc4c3c12", "nm", 403),
    ("Cc1ccc(-c2cc(C)[o+]c(C)c2)cc1", "nm", 417),
    ("COc1ccc(-c2c3cc4ccccc4cc3c(-c3ccc(OC)cc3)c3cc4ccccc4cc23)cc1", "nm", 620),
    ("COc1ccc(-c2cnc(/C=C/c3ccc(OC)c(OC)c3)o2)cc1", "nm", 435),
    ("Cc1ccccc1N1c2sc3ccccc3c2Sc2sc3ccccc3c21", "nm", 564),
    ("FC(F)(F)c1ccc(-n2c(-c3ccc(N(c4ccc(-c5ccc(N(c6ccc(-c7nc8c9ccccc9c9ccccc9c8n7-c7ccc(C(F)(F)F)cc7)cc6)c6ccc(-c7nc8c9ccccc9c9ccccc9c8n7-c7ccc(C(F)(F)F)cc7)cc6)cc5)cc4)c4ccc(-c5nc6c7ccccc7c7ccccc7c6n5-c5ccc(C(F)(F)F)cc5)cc4)cc3)nc3c4ccccc4c4ccccc4c32)cc1", "nm", 442),
]

###

# run-description: solvent given as SMILES
# experimental-conditions: in CCO
# emission maximum listing for each entry below
readout: emission maximum

# molecule, readout, meas-value
rows = [
    ("O=C1c2ccccc2C2=Cc3cccc[n+]3[B-](F)(F)N12", "emission maximum", "449 nm"),
    ("O=C([O-])c1ccccc1-c1c2cc(I)c(=O)c(I)c-2oc2c(I)c([O-])c(I)cc12", "emission maximum", "551 nm"),
    ("O=c1c2cc(F)c(O)cc2n(-c2ccccc2)c2cc(O)c(F)cc12", "emission maximum", "454 nm"),
    ("CN(C)c1cc2oc3cc(N(C)C)c(F)cc3c(=O)c2cc1F", "emission maximum", "446 nm"),
    ("CCOC(=O)c1ccccc1-c1c2ccc(=[N+](CC)CC)cc-2oc2c1oc1cc(N)ccc12", "emission maximum", "640 nm"),
    ("CCN(CC)c1cc2oc3cc(N(CC)CC)c(F)cc3c(=O)c2cc1F", "emission maximum", "452 nm"),
    ("CN1/C(=C/C=C(/C=C/C2=[N+](C)c3ccccc3C2(C)C)c2cc(F)cc(F)c2)C(C)(C)c2ccccc21", "emission maximum", "661 nm"),
    ("CN(C)c1ccc2c(C(=O)NCc3ccccc3)cc(C(=O)[O-])nc2c1", "emission maximum", "603 nm"),
    ("CN1/C(=C/C=C(/C=C/c2sc3ccccc3[n+]2C)c2ccc(C(F)(F)F)cc2)Sc2ccccc21", "emission maximum", "678 nm"),
    ("CN1c2ccccc2C(O)(c2ccccc2)c2cc([N+](=O)[O-])ccc21 (stereo unspecified)", "emission maximum", "536.2 nm"),
    ("COc1ccc(/C=C2\\OC(=O)c3cc(N)ccc32)cc1", "emission maximum", "485.44 nm"),
]

###

# emission maximum listing for each entry below
# run-description: solvent given as SMILES
# experimental-conditions: in C1CCOC1

# molecule, emission maximum (nm)
data = [
    ("CCCCn1c2ccc(C#N)cc2c2cc(C#N)cc(-c3ccc(N(c4ccccc4)c4ccccc4)cc3)c21", 440),
    ("CC1=[N+]2C(=C(c3ccc(N(C)C)cc3)c3ccc(C)n3[B-]2(F)F)C=C1", 517),
    ("OCC1O[C@@H](Cc2cc(O)cc(/C=C/c3ccc(O)c(O)c3)c2)[C@H](O)[C@@H](O)[C@@H]1O (stereo not given in full)", 375),
    ("CC(C)(C)c1ccc2c(c1)c1cc(C(C)(C)C)ccc1n2-c1ccccc1-c1nc(-c2ccccc2-n2c3ccc(C(C)(C)C)cc3c3cc(C(C)(C)C)ccc32)nc(-c2ccccc2P(=O)(c2ccccc2)c2ccccc2)n1", 512.54),
    ("C[Si]1(c2ccccc2)C(c2ccc3c4ccccc4n(-c4ccccc4)c3c2)=C(c2ccccc2)C(c2ccccc2)=C1c1ccc2c3ccccc3n(-c3ccccc3)c2c1", 525),
    ("C#Cn1c(-c2cc(-c3nc4ccc(C)cc4n3C#C)cc(-c3nc4ccc(C)cc4n3C#C)c2)nc2ccc(C)cc21", 389.5),
    ("CN1c2ccccc2C(O)(c2ccccc2)c2cc([N+](=O)[O-])ccc21 (stereo not given)", 501.3),
    ("Cc1ccc(-c2c3ccc([nH]3)c3nc(c(-c4ccc(C#N)cc4)c4ccc([nH]4)c4ccc([nH]4)c(-c4ccc(C)cc4)c4ccc2o4)C=C3)cc1", 730),
    ("O=c1oc2ccccc2cc1-c1nc2ccccc2o1", 444),
    ("Cn1c(=O)c(/N=N/c2ccc(S(=O)(=O)O)c3ccccc23)c(O)c2ccccc21", 548),
    ("O=P(c1ccccc1)(c1ccccc1)n1c2ccccc2c2cc(-n3c4ccccc4c4cc(-n5c6ccccc6c6ccccc65)ccc43)ccc21", 373),
    ("CCCCCCCCOc1ccc2c3cccc4c(OCCCCCCCC)ccc(c5cccc1c52)c43", 468.03),
    ("COc1ccc(/C=C/c2nc(/C=C/c3ccc(N(c4ccccc4)c4ccccc4)cc3)cc(/C=C/c3ccc(N(c4ccccc4)c4ccccc4)cc3)n2)cc1", 515),
    ("O=C(N/N=C/c1ccccc1O)c1cccc2ccccc12", 436),
    ("CC(C)[Si](C#CC1=CC2=c3cc(C#C[Si](C(C)C)(C(C)C)C(C)C)c4nc(C(F)(F)C(F)(F)C(F)(F)F)nc5c(C#C[Si](C(C)C)(C(C)C)C(C)C)cc(c3c54)C3=CC(C#C[Si](C(C)C)(C(C)C)C(C)C)=C4N=C(C(F)(F)C(F)(F)C(F)(F)F)N=C1C4C32)(C(C)C)C(C)C (stereo not given)", 525),
]

Data credit: the Deep4Chem optical property database
